Tested on: SR leukemia
Assay: NCI-60 one-dose screen, 48 h
Details: 10 µM unless noted
The panel holds about 83,000 compounds, 20% with a hit somewhere; the sample as a whole holds those more often. The source made the active and inactive calls. How the source made its calls: active means growth percent below 10; inactive means the rest.
Result category, one only: yes for active, no for inactive

INSERT INTO assay_data (molecule, label_value) VALUES
  ('O=C(NCc1ccco1)C1CCN(S(=O)(=O)c2ccc(Cl)cc2)CC1', 'no'),
  ('COc1cc(/C=C/C(=O)C2=C(/C=C/c3ccc(O)c(OC)c3)NC(=O)NC2c2ccc(O)c(OC)c2)ccc1O (stereo unspecified)', 'no');

QUERY: Recorded test outcome, item COc1nc2c(cc1S(=O)(=O)c1ccccc1)CCc1c-2cnn1-c1cccc(Cl)c1
RESULT: no

QUERY: What about this molecule? CC(C)NCC(O)COc1ccc(CCOCC2CC2)cc1 (stereo unspecified)
RESULT: no

QUERY: Check Cc1ccc(S(=O)(=O)N(c2ccc(Cl)cc2)c2ccc(Br)cc2C(=O)O)cc1 too.
RESULT: no

QUERY: Item: Clc1ccc(Nc2nc(Nc3ccccc3)nc(Nc3ccc(-c4cc(-c5ccc(Cl)cc5)on4)cc3)n2)cc1
RESULT: no

QUERY: Try the molecule CCN(C(=O)c1ccc2c3c(cccc13)C=C2)c1ccccc1
RESULT: no

QUERY: Same question, Cc1cc(NS(=O)(=O)c2ccc(NC(=O)COc3ccc(-c4cc5ccccc5[nH]4)cc3)cc2)no1 this time
RESULT: yes

QUERY: Can you check Cc1nc(NC(=O)COc2cccc(/C=C3\COc4ccccc4C3=O)c2)sc1C next?
RESULT: yes

QUERY: # repeat for CN(C)c1ccc(/C=C(\C#N)c2cc3ccccc3n2C)cc1
RESULT: no

QUERY: Further, for COc1cc(-c2ccc3cc(OC)c(OC)c(OC)c3c2)cc(OC)c1OC ?
RESULT: yes

QUERY: Same again, this time with COc1cc(CNCCN2C(=O)c3ccc4c5c(ccc(c35)C2=O)C(=O)N(CCNCc2cc(OC)c(OC)c(OC)c2)C4=O)cc(OC)c1OC
RESULT: yes

QUERY: Now consider O=c1nc(NO)[nH]c(=O)n1Cc1ccc(F)cc1 and answer again.
RESULT: no

QUERY: Moving on to the next molecule: CN1CCN(CCCn2c3c(sc4ncccc43)c(=O)n3nnc(-c4ccccc4)c23)CC1
RESULT: yes

QUERY: Also CCCCCCCC/C=C\CCCCCCCCOc1cccc(CC(=O)NCC[N+]2(C)CCCCC2)c1 ?
RESULT: no

QUERY: Same read-out for CN(C)C(=S)SCN1C(=O)c2ccc([N+](=O)[O-])cc2S1(=O)=O ?
RESULT: no

* * *

System: SNB-75 CNS
Experiment: NCI-60 one-dose screen, 48 h (100 = growth as untreated, 0 = no growth, -100 = all killed)
Details: 10 µM unless noted
This is part of a sample that, as a whole, favours compounds with a hit. Of some 83,000 tested, about 20% had one in any assay.
Lab note: anything with growth at or over 90% counts as Satisfied; the rest go in Not satisfied.

INSERT INTO assay_data (molecule, experimental_system, label_value) VALUES
  ('CCOC(=O)C1=C(C)N2C(=NC3=C(CCCC/C3=C\c3ccccc3)C2c2ccccc2)S1 (centres undefined)', 'SNB-75 CNS', 'Satisfied');

QUERY: Textbook exercise: given the entry O=C(c1ccccc1)C(Br)C(Br)c1cccc([N+](=O)[O-])c1 (centres undefined) , state whether its growth is greater than or equal to 90%.
RESULT: Not satisfied

QUERY: Could you do the same for O=C1c2c(c3c4cc(Br)ccc4[nH]c3c3ccc4ccccc4c23)C(=O)N1O , please?
RESULT: Not satisfied

QUERY: Also check COc1cc2oc(-c3ccc(O)cc3)cc(=O)c2c(O)c1I
RESULT: Satisfied

QUERY: Okay, and Cc1ccc(C(=O)Nc2ccccc2N)cc1 ?
RESULT: Not satisfied

QUERY: Next molecule up: NC(=O)c1cccc(-n2ccc3cc(NC(=O)Nc4ccc(Cl)c(Cl)c4)ccc32)n1
RESULT: Not satisfied

* * *

Test system: M14 melanoma
Assay: NCI-60 one-dose screen, 48 h (100 = growth as untreated, 0 = no growth, -100 = all killed)
Conditions: 10 µM unless noted
Compounds without any hit were thinned out: in the full panel of roughly 83,000, 20% have a hit. Active and inactive are the calls of the source. The calls were made as follows: active = growth percent below 10; inactive = the rest.
quantity.measured: growth

As a guide, the following entries are already answered.
INSERT INTO results (compound, quantity_measured, measured) VALUES
  ('Nc1cc(Br)c(-c2nnc(CCC(=O)c3nc4ccccc4[nH]3)o2)c(Br)c1', 'growth', '79.8% (inactive)'),
  ('COC(=O)CCC(=O)c1ccccc1', 'growth', '103% (inactive)'),
  ('COc1ccc(-n2c(SCc3cc(OC)c(OC)c(OC)c3)nc3ccc(C)cc3c2=O)c(OC)c1', 'growth', '11.2% (inactive)');

// switching to the query compound
QUERY: // returns reported growth for input CCCCC(O)Cn1ncc(C(=O)OCC)c1NC(=O)NCc1ccccc1C(F)(F)F (stereo not drawn)
RESULT: 95.2% (inactive)

* * *

Tested on: SF-268 CNS
Assay: NCI-60 one-dose screen, 48 h (100 = growth as untreated, 0 = no growth, -100 = all killed)
Conditions: 10 µM unless noted
Compounds without any hit were thinned out: in the full panel of roughly 83,000, 20% have a hit.
Returns label 1 if the recorded growth is greater than or equal to 50%, and label 0 otherwise.

Solved entries (count: 3):
INSERT INTO measurements (molecule, label_value) VALUES
  ('CS(=O)(=O)Nc1cccc(C(=O)NCc2ccc(N3CCOCC3)cc2)c1', 'label 1'),
  ('Brc1ccc(SCN(CSc2ccc(Br)cc2)Cc2ccccc2)cc1', 'label 0'),
  ('CCCCCCCCCCCCCCCC[N+]1(C)CCOCC1', 'label 0');

QUERY: # check: growth of Cn1c2c(cc(S(=O)(=O)c3ccccc3)c1=O)CCc1c-2cnn1-c1cccc(Cl)c1 is greater than or equal to 50%
RESULT: label 1

QUERY: Cc1ccc(N(CSc2ccc(Cl)cc2)CSc2ccc(Cl)cc2)cc1 , same question.
RESULT: label 0

QUERY: What would you report for COc1ccc(-c2nc3sccn3c2/C=C/C(=O)c2cc(OC)c(OC)c(OC)c2)cc1OC ?
RESULT: label 0

QUERY: What would you report for FC(F)(F)c1ccc2c(c1)n1cnnc1c1nncn21 ?
RESULT: label 1

QUERY: Moving on to Cc1cccc2c(=O)c3c(sc12)c(NCCCN)nc1ccccc13
RESULT: label 0

QUERY: Please do the same for O=C1C(OCCOc2ccccc2)=C(OCCOc2ccccc2)C(=O)c2ccccc21 as well.
RESULT: label 1

QUERY: Now this one: CC1(C)CC(=O)C2=C(C1)Nc1cc3c(cc1C2c1ccc(F)cc1)OCO3 (stereo not drawn)
RESULT: label 1

QUERY: For COc1ccc(-c2c(-c3cc4c(c(OC)c3OC)OCO4)noc2N)cc1 then?
RESULT: label 0

QUERY: Let us now turn to C(=C\c1ccccc1)/CN1CCN(C(c2ccccc2)c2ccccc2)CC1
RESULT: label 1

QUERY: What do you have for Cc1nc2cc(Nc3nc(N4CCOCC4)nc(N4CCN(C)CC4)n3)ccc2n1Cc1ccccc1 ?
RESULT: label 1

QUERY: Further, for CCCCCCCCCCCCCCn1c2ccccc2c2c3c(c4c5cc(OC)ccc5oc4c21)C(=O)NC3=O ?
RESULT: label 1

QUERY: Could you do the same for O=C(c1ccccc1)C(Br)C(Br)c1cccc([N+](=O)[O-])c1 (stereo not drawn) , please?
RESULT: label 1

QUERY: Follow-up item: COc1cccc2c(=O)c3c(sc12)c(NCCN(C)C)nc1ccccc13
RESULT: label 0

QUERY: Now consider CCCCCCCC/C=C\CCCCCCCCOc1cccc(CC(=O)NCC[N+]2(C)CCCCC2)c1 .
RESULT: label 1

QUERY: Further, for Cc1ccc2c(N/N=C\c3ccco3)cc(C)nc2n1 ?
RESULT: label 1

* * *

Test system: SNB-19 CNS
Assay: NCI-60 one-dose screen, 48 h (100 = growth as untreated, 0 = no growth, -100 = all killed)
Conditions: 10 µM unless noted
Compounds without any hit were thinned out: in the full panel of roughly 83,000, 20% have a hit. Active and inactive are the calls of the source. Rule for the calls: active = growth percent below 10; inactive = the rest.
quantity.measured: growth

Sample answers from the record:
INSERT INTO assay_data (molecule, quantity_measured, measured) VALUES
  ('COc1ccc(/C=C2\Oc3cc(C)c(Cl)cc3C2=O)cc1OC', 'growth', '98.4% (inactive)'),
  ('COc1ccccc1/C=C/C(=O)/C=C/c1ccccc1O', 'growth', '31.8% (inactive)'),
  ('CCOC(=O)n1cc(C2=C(c3cn(C)c4ccccc34)COC2=O)c2ccccc21', 'growth', '30.5% (inactive)'),
  ('O=C(N/N=C(\CS(=O)(=O)c1ccccc1)c1cc2ccccc2oc1=O)c1ccccc1', 'growth', '99.8% (inactive)'),
  ('COc1ccc(-c2csc3c2-n2cccc2C3=O)cc1O', 'growth', '41.4% (inactive)');

QUERY: Lookup: growth / SNB-19 CNS / COc1cc(/C=C/C(=O)CC(=O)/C=C/c2cc(Br)c(OC)c(OC)c2)cc(Br)c1OC
RESULT: 99.8% (inactive)

QUERY: Another molecule: Oc1ccccc1/C=N/Nc1nc2ccccc2s1
RESULT: 51.4% (inactive)

QUERY: # iterate: COc1cccc(C2CC(=O)Nc3cc4c(cc32)CCC4)c1OC (stereo not given)
RESULT: 80.8% (inactive)

QUERY: Okay, and Cc1ccc(C(=O)Nc2ccccc2N)cc1 ?
RESULT: 81.9% (inactive)

QUERY: Record: COc1ccc(C2OCC(C)(C)CO2)cc1OC
RESULT: 112% (inactive)

QUERY: Would you mind doing COc1cc(-c2nc(SC(C)C)nc(Nc3cccc(C)c3)c2C#N)cc(OC)c1OC as well?
RESULT: 103% (inactive)

QUERY: Query CCCCCCCCCCCCCCCC[N+]1(C)CCOCC1 next
RESULT: -29.1% (active)

QUERY: And for Cc1ccc(-c2c3c(N)c4c(nc3nc3c2c(C)nn3-c2ccccc2)CCCC4)cc1 ?
RESULT: 108% (inactive)

QUERY: Please answer likewise for O=C1/C(=C/c2ccc(F)cc2)CN(Cc2cn(CCNc3ccnc4cc(Cl)ccc34)nn2)C/C1=C\c1ccc(F)cc1
RESULT: -74.4% (active)

QUERY: Moving on to CC(C)(C)CC(C)(C)N(CSc1ccc(Cl)cc1)CSc1ccc(Cl)cc1
RESULT: 67.5% (inactive)

// provenance: PubChem BioAssay (NCI)
